- method-description: HepG2 liver cancer cell viability effects, profiling panel, resazurin fluorescence, 24 h, PK04 Diversity Set (AID 1172); also: test concentration not given here
- test-context: higher = more signal
assay-readout: z-score
Answers are plain numbers.

Consider the following illustrative entries.
[[record]]
compound = "CO[C@@H]1COC(=O)CC=C[C@@H](C)[C@@H]2C=C[C@H](O)[C@@H](COC(=O)CCC[C@H]1C)O2"
value_measured = 0.696

[[record]]
compound = "COC(=O)[C@H](C)NC(=O)CCC1CC(OC(=O)NCc2cccc3ccccc23)CC2(CCCC(COC(=O)NCC3CCCCC3)O2)O1 (some centres undefined)"
value_measured = 1.14

[[record]]
compound = "C=C(/C(=C/C[C@H](OC(C)=O)c1ccc(OCCO)cc1)c1cnc2ccccc2c1)C(C)C"
value_measured = 1.93

[[record]]
compound = "COCCNC(=O)OCC1CCCC2(CC(OC(=O)NCCc3ccc(F)cc3)CC(CCC(=O)N[C@@H](C)C(=O)OC)O2)O1 (some centres undefined)"
value_measured = 0.864

[[record]]
compound = "C[C@@H]1CCC2C(=O)N(Cc3ccccc3)C[C@@H](O)CN2[C@H]1c1ccc(Br)cc1 (some centres undefined)"
value_measured = 0.644

[[record]]
compound = "CC(CCN1CCc2nc(-c3ccccc3)c(-c3ccccc3)cc2C1)=NOC[C@@H](C)[C@H](OCc1ccccc1)C(C)C"
value_measured = -1.12


Please state z-score for every compound in the list that follows.
1. CO[C@H]1O[C@H](CO)[C@@H](OC(=O)Nc2ccc3c(c2)OCO3)[C@H](OC(=O)Nc2ccccc2-c2ccccc2)[C@@H]1OC(=O)Nc1ccccc1-c1ccccc1
2. O=C1[C@H]2[C@H]3[C@H](O)[C@H](O)CC(=NO[C@@H]4O[C@H](CO)[C@@H](O)[C@H](O)[C@H]4O)[C@H]3CC[C@H]2C(=O)N1Cc1ccccc1
3. CC(C)OC(=O)C=C1C[C@@H](c2ccc(C#N)cc2)O[C@@H](c2ccc(C#N)cc2)O1

**Result**
-0.659
0.835
-0.389
